Give inhibition at 20 µM for every item shown.
- Test system: HOS (human osteosarcoma cell)
- METHOD_DESCRIPTION: CCK-8 anti-proliferation assay, HOS
- Assay type: cell-based
- CONDITION_PARAMETERS: at 20 µM, 48 h, mean ± SEM, read-out: Inhibition Rate (%)
Field format: number, assumed %, no unit text.

Q: Answer with the recorded inhibition at 20 µM for the compound listed here: C[C@@H](CO)CCC[C@@H](C)[C@H]1[C@@H](O)C[C@H]2[C@@H]3CC=C4C[C@@H](O)CC[C@]4(C)[C@H]3CC[C@]12C [compound 8]
Ans: 2.7

Q: Return value of inhibition at 20 µM for input CC(=O)OC[C@H](C)CCC[C@@H](C)[C@H]1CC[C@H]2[C@@H]3C[C@@H](O)[C@@]4(O)C[C@@H](O)CC[C@]4(C)[C@H]3CC[C@]12C [compound 13] , no commentary.
Ans: 52.6

Q: In one line, give reported inhibition at 20 µM of the entry CC(=O)OC[C@H](C)CCC[C@@H](C)[C@H]1CC[C@H]2[C@@H]3CC(=O)[C@@]4(O)C[C@@H](O)CC[C@]4(C)[C@H]3CC[C@]12C [compound (25R)-5] .
Ans: 22.2

Q: State, in one line, measured inhibition at 20 µM of C[C@@H](CO)CCC[C@@H](C)[C@H]1CC[C@H]2[C@@H]3CC=C4C[C@@H](O)CC[C@]4(C)[C@H]3CC[C@]12C [compound 11]
Ans: 9.3
